Readings of CC50 at 48 h for the listed compounds
Assay: Cytotoxicity against E6/E7 immortalized human HNME cells assessed as inhibition of cell growth measured after 48 hrs by microplate reader analysis
Assay type: cell-based
Conditions: read-out: LD50

- SMILES: "CS(=O)(=O)c1ccc(C(=O)/C=C/c2ccc(N(CCCl)CCCl)cc2)cc1"
  CC50 at 48 h: "29.4 µM"
- SMILES: "COc1cccc(C(=O)/C=C/c2ccc(N(CCCl)CCCl)cc2)c1"
  CC50 at 48 h: "21.3 µM"

---

Test system: MDA-MB-231
Assay: Antiproliferative activity against human MDA-MB-231 cells assessed as inhibition of cell growth measured after 48 hrs by microplate reader analysis
Type: functional, cell-based
Settings: MDA-MB-231, 48 h
Readings of IC50 for the listed molecules
METRIC: IC50

- SMILES: "COc1cccc(C(=O)/C=C/c2ccc(N(CCCl)CCCl)cc2)c1"
  METRIC: "IC50"
  OBSERVED: "8 µM"
- SMILES: "CS(=O)(=O)c1ccc(C(=O)/C=C/c2ccc(N(CCCl)CCCl)cc2)cc1"
  METRIC: "IC50"
  OBSERVED: "7.44 µM"

---

System: MCF7
Assay: Antimigratory activity in human MCF7 cells assessed as inhibition of cell motility after 24 hrs by microscopic analysis
Type: functional, cell-based
Details: MCF7, 24 h
pIC50: −log10 of the molar value.

- SMILES: "COc1cccc(C(=O)/C=C/c2ccc(N(CCCl)CCCl)cc2)c1"
  pIC50: 5.61
